Target: T1, cynomolgus monkey C-KIT-Fc (cynomolgus monkey)
T1 construct: also called cyno C-KIT-Fc
Assay: HTRF competition vs Tb-h37M IgG1
observed property: IC50 (µg/mL)
Could you give me the number in µg/mL? Just the number is fine.

Data request: Fill in the blank: the reported IC50 of E-E10 (antibody, IgG1, V domains shown, IgG1; also called C-KIT-E-E10) VH: QVQLVQSGAEVKKPGASVKVSCKASGYTFTDYYMNWVRQAPGQGLEWMGRIYPGSGNTYYAQKFQGRVTMTRDTSTSTVYMELSSLRSEDTAVYYCARGVWYFDYWGQGTLVTVSS VL: DIQMTQSPSSLSASVGDRVTITCRASQGVRTNVAWFQQKPGKAPKSLIYSASSLQSGVPSRFSGSGSGTDFTLTISSLQPEDFATYYCQQYNSYPRTFGGGTKVEIK is ____.
Data returned: 0.097

Data request: Could you do the same for F-C5 (antibody, IgG1, V domains shown, IgG1; also called C-KIT-F-C5; F-05) VH: QVQLVQSGAEVKKPGASVKVSCKASGYTFTDYYMNWVRQAPGQGLEWMGRIYPGSGNTYYAQKFQGRVTMTRDTSTSTVYMELSSLRSEDTAVYYCARGVYYFDEWGQGTLVTVSS VL: DIQMTQSPSSLSASVGDRVTITCRASQGVRTNLAWFQQKPGKAPKSLIYAASSRQSGVPSRFSGSGSGTDFTLTISSLQPEDFATYYCQQYNSYPRTFGGGTKVEIK , please?
Data returned: 0.079

Data request: Could you do the same for C-B12 (antibody, IgG1, V domains shown, IgG1; also called C-KIT-C-B12) VH: QVQLVQSGAEVKKPGASVKVSCKASGYTFTDYYMNWVRQAPGQGLEWMGRIYPGSGNTYYAQKFQGRVTMTRDTSTSTVYMELSSLRSEDTAVYYCARGVYEFDYWGQGTLVTVSS VL: DIQMTQSPSSLSASVGDRVTITCRASQGVRNNLAWFQQKPGKAPKSLIYAASYRQSGVPSRFSGSGSGTDFTLTISSLQPEDFATYYCQQYNSYPRTFGGGTKVEIK , please?
Data returned: 0.166

Data request: Could you do the same for D-A10 (antibody, IgG1, V domains shown, IgG1; also called C-KIT-D-A10) VH: QVQLVQSGAEVKKPGASVKVSCKASGYTFTDYYMNWVRQAPGQGLEWMGRIYPGSGNTYYAQKFQGRVTMTRDTSTSTVYMELSSLRSEDTAVYYCARGVYYFDTWGQGTLVTVSS VL: DIQMTQSPSSLSASVGDRVTITCRASQGVRTNLAWFQQKPGKAPKSLIYAASSRQSGVPSRFSGSGSGTDFTLTISSLQPEDFATYYCQQYNSYPRTFGGGTKVEIK , please?
Data returned: 0.059

Data request: Could you do the same for E-C7 (antibody, IgG1, V domains shown, IgG1; also called C-KIT-E-C7) VH: QVQLVQSGAEVKKPGASVKVSCKASGYTFTDYYMNWVRQAPGQGLEWMGRIYPGSGNTYYAQKFQGRVTMTRDTSTSTVYMELSSLRSEDTAVYYCARGVYYYDYWGQGTLVTVSS VL: DIQMTQSPSSLSASVGDRVTITCRASQGIRTNLAWFQQKPGKAPKSLIYSASSLQSGVPSRFSGSGSGTDFTLTISSLQPEDFATYYCQQYNSYPRTFGGGTKVEIK , please?
Data returned: 0.051
